- System: Escherichia coli
- METHOD DESCRIPTION: Antibacterial activity against multidrug-resistant Escherichia coli NCTC 13846 assessed as bacterial growth inhibition by broth microdilution assay
- Assay type: functional
Positions of bridges follow the written chain, without caps; N, C: chain ends. Non-standard residues stand in square brackets, D forms with d. Residues, ends and D or L forms follow the SMILES beside them. *: point of attachment. X1 = CC[C@H](C)CCCCC(=O)*; Dab = NCC[C@H](N)C(=O)O
Reported MIC values follow for various compounds

COMPOUND	MIC [µg/mL]
CC(C)CCSSC[C@@H](N)C(=O)N[C@H](C(=O)NCC(=O)N[C@H]1CCNC(=O)[C@H]([C@@H](C)O)NC(=O)[C@H](CCN)NC(=O)[C@H](CCN)NC(=O)[C@H](CC(C)C)NC(=O)[C@@H](Cc2ccccc2)NC(=O)[C@H](CCN)NC1=O)[C@@H](C)O	16
CC[C@H](C)CCCCC(=O)N[C@@H](CCN)C(=O)N[C@H](C(=O)N[C@@H](CCN)C(=O)N[C@H]1CCNC(=O)[C@H]([C@@H](C)O)NC(=O)[C@H](CCN)NC(=O)[C@H](CCN)NC(=O)[C@H](CC(C)C)NC(=O)[C@@H](Cc2ccccc2)NC(=O)[C@H](CCN)NC1=O)[C@@H](C)O (X1-[Dab]T[Dab][Dab][Dab][dF]L[Dab][Dab]T; lactam 4-C)	4
CC(C)CCSSC[C@@H](N)C(=O)N[C@H](C(=O)N[C@H](CN)C(=O)N[C@H]1CCNC(=O)[C@H]([C@@H](C)O)NC(=O)[C@H](CCN)NC(=O)[C@H](CCN)NC(=O)[C@H](CC(C)C)NC(=O)[C@@H](Cc2ccccc2)NC(=O)[C@H](CCN)NC1=O)[C@@H](C)O	8
CC(C)C[C@@H]1NC(=O)[C@@H](Cc2ccccc2)NC(=O)[C@H](CCN)NC(=O)[C@@H](NC(=O)[C@@H](CCN)NC(=O)[C@@H](NC(=O)[C@H](N)CSSCCC2CCCCC2)[C@@H](C)O)CCNC(=O)[C@H]([C@@H](C)O)NC(=O)[C@H](CCN)NC(=O)[C@H](CCN)NC1=O	4
CC(C)C[C@@H]1NC(=O)[C@@H](Cc2ccccc2)NC(=O)[C@H](CCN)NC(=O)[C@@H](NC(=O)CNC(=O)[C@@H](NC(=O)[C@H](N)CSSCc2cccc(Cl)c2)[C@@H](C)O)CCNC(=O)[C@H]([C@@H](C)O)NC(=O)[C@H](CCN)NC(=O)[C@H](CCN)NC1=O	8

----------
- Test system: Pseudomonas aeruginosa
- METHOD DESCRIPTION: Antibacterial activity against Pseudomonas aeruginosa NRZ 08418 assessed as bacterial growth inhibition by broth microdilution assay
- Format: functional
Here, each record is paired with measured MIC data.

MOL	MIC
CC(C)C[C@@H]1NC(=O)[C@@H](Cc2ccccc2)NC(=O)[C@H](CCN)NC(=O)[C@@H](NC(=O)[C@@H](CO)NC(=O)[C@@H](NC(=O)[C@H](N)CSSCCC2CCCCC2)[C@@H](C)O)CCNC(=O)[C@H]([C@@H](C)O)NC(=O)[C@H](CCN)NC(=O)[C@H](CCN)NC1=O	4 µg/mL
CC(C)C[C@@H]1NC(=O)[C@@H](Cc2ccccc2)NC(=O)[C@H](CCN)NC(=O)[C@@H](NC(=O)[C@@H](CCN)NC(=O)[C@@H](NC(=O)[C@H](N)CSSCc2cccc(Cl)c2)[C@@H](C)O)CCNC(=O)[C@H]([C@@H](C)O)NC(=O)[C@H](CCN)NC(=O)[C@H](CCN)NC1=O	2 µg/mL
CC(C)CCSSC[C@@H](N)C(=O)N[C@H](C(=O)N[C@H](CCN)C(=O)N[C@H]1CCNC(=O)[C@H]([C@@H](C)O)NC(=O)[C@H](CCN)NC(=O)[C@H](CCN)NC(=O)[C@H](CC(C)C)NC(=O)[C@@H](Cc2ccccc2)NC(=O)[C@H](CCN)NC1=O)[C@@H](C)O	2 µg/mL
CC(C)C[C@@H]1NC(=O)[C@@H](Cc2ccccc2)NC(=O)[C@H](CCN)NC(=O)[C@@H](NC(=O)[C@H](CCN)NC(=O)[C@@H](NC(=O)[C@H](N)CSSCc2cccc(Cl)c2)[C@@H](C)O)CCNC(=O)[C@H]([C@@H](C)O)NC(=O)[C@H](CCN)NC(=O)[C@H](CCN)NC1=O	2 µg/mL

----------
- METHOD DESCRIPTION: Cytotoxicity against human ciPTEC cells assessed as reduction in cell viability at 250 uM incubated for 24 hrs by PrestoBlue reagent based fluorescence assay
- Assay type: toxicity
Positions of bridges follow the written chain, without caps; N, C: chain ends. Non-standard residues stand in square brackets, D forms with d. Residues, ends and D or L forms follow the SMILES beside them. *: point of attachment. X1 = CC[C@H](C)CCCCC(=O)*; Dab = NCC[C@H](N)C(=O)O
The following molecules are listed with their measured Activity values.
METRIC NAME: Activity

MOLECULE	TEST RESULT
CC[C@H](C)CCCCC(=O)N[C@@H](CCN)C(=O)N[C@H](C(=O)N[C@@H](CCN)C(=O)N[C@H]1CCNC(=O)[C@H]([C@@H](C)O)NC(=O)[C@H](CCN)NC(=O)[C@H](CCN)NC(=O)[C@H](CC(C)C)NC(=O)[C@@H](Cc2ccccc2)NC(=O)[C@H](CCN)NC1=O)[C@@H](C)O (X1-[Dab]T[Dab][Dab][Dab][dF]L[Dab][Dab]T; lactam 4-C)	85%
CC(C)C[C@@H]1NC(=O)[C@@H](Cc2ccccc2)NC(=O)[C@H](CCN)NC(=O)[C@@H](NC(=O)[C@H](CCN)NC(=O)[C@@H](NC(=O)[C@H](N)CSSCCC2CCCCC2)[C@@H](C)O)CCNC(=O)[C@H]([C@@H](C)O)NC(=O)[C@H](CCN)NC(=O)[C@H](CCN)NC1=O	> 50%
CC(C)CCSSC[C@@H](N)C(=O)N[C@H](C(=O)N[C@@H](CCN)C(=O)N[C@H]1CCNC(=O)[C@H]([C@@H](C)O)NC(=O)[C@H](CCN)NC(=O)[C@H](CCN)NC(=O)[C@H](CC(C)C)NC(=O)[C@@H](Cc2ccccc2)NC(=O)[C@H](CCN)NC1=O)[C@@H](C)O	> 50%
CC(C)C[C@@H]1NC(=O)[C@@H](Cc2ccccc2)NC(=O)[C@H](CCN)NC(=O)[C@@H](NC(=O)[C@H](CCN)NC(=O)[C@@H](NC(=O)[C@H](N)CSSCc2cccc(Cl)c2)[C@@H](C)O)CCNC(=O)[C@H]([C@@H](C)O)NC(=O)[C@H](CCN)NC(=O)[C@H](CCN)NC1=O	> 50%

----------
Each record here notes measured MIC.
- Tested on: Escherichia coli
- METHOD DESCRIPTION: Antibacterial activity against Escherichia coli ATCC 25922 assessed as bacterial growth inhibition by broth microdilution assay
- Format: functional

MOL	MEASURED ON	UOM	MIC
CC(C)CCSSC[C@@H](N)C(=O)N[C@H](C(=O)N[C@H](CN)C(=O)N[C@H]1CCNC(=O)[C@H]([C@@H](C)O)NC(=O)[C@H](CCN)NC(=O)[C@H](CCN)NC(=O)[C@H](CC(C)C)NC(=O)[C@@H](Cc2ccccc2)NC(=O)[C@H](CCN)NC1=O)[C@@H](C)O	Escherichia coli	µg/mL	2
CC(C)C[C@@H]1NC(=O)[C@@H](Cc2ccccc2)NC(=O)[C@H](CCN)NC(=O)[C@@H](NC(=O)[C@@H](CN)NC(=O)[C@@H](NC(=O)[C@H](N)CSSCc2cccc(Cl)c2)[C@@H](C)O)CCNC(=O)[C@H]([C@@H](C)O)NC(=O)[C@H](CCN)NC(=O)[C@H](CCN)NC1=O	Escherichia coli	µg/mL	2
CC(C)C[C@@H]1NC(=O)[C@@H](Cc2ccccc2)NC(=O)[C@H](CCN)NC(=O)[C@@H](NC(=O)CNC(=O)[C@@H](NC(=O)[C@H](N)CSSCCC2CCCCC2)[C@@H](C)O)CCNC(=O)[C@H]([C@@H](C)O)NC(=O)[C@H](CCN)NC(=O)[C@H](CCN)NC1=O	Escherichia coli	µg/mL	2
CC(C)C[C@@H]1NC(=O)[C@@H](Cc2ccccc2)NC(=O)[C@H](CCN)NC(=O)[C@@H](NC(=O)[C@H](CCN)NC(=O)[C@@H](NC(=O)[C@H](N)CSSCc2cccc(Cl)c2)[C@@H](C)O)CCNC(=O)[C@H]([C@@H](C)O)NC(=O)[C@H](CCN)NC(=O)[C@H](CCN)NC1=O	Escherichia coli	µg/mL	1
CC(C)C[C@@H]1NC(=O)[C@@H](Cc2ccccc2)NC(=O)[C@H](CCN)NC(=O)[C@@H](NC(=O)[C@@H](CO)NC(=O)[C@@H](NC(=O)[C@H](N)CSSCc2cccc(Cl)c2)[C@@H](C)O)CCNC(=O)[C@H]([C@@H](C)O)NC(=O)[C@H](CCN)NC(=O)[C@H](CCN)NC1=O	Escherichia coli	µg/mL	2
CC(C)C[C@@H]1NC(=O)[C@@H](Cc2ccccc2)NC(=O)[C@H](CCN)NC(=O)[C@@H](NC(=O)[C@@H](CCN)NC(=O)[C@@H](NC(=O)[C@H](N)CSSCc2cccc(Cl)c2)[C@@H](C)O)CCNC(=O)[C@H]([C@@H](C)O)NC(=O)[C@H](CCN)NC(=O)[C@H](CCN)NC1=O	Escherichia coli	µg/mL	2
CC(C)CCSSC[C@@H](N)C(=O)N[C@H](C(=O)N[C@@H](CCN)C(=O)N[C@H]1CCNC(=O)[C@H]([C@@H](C)O)NC(=O)[C@H](CCN)NC(=O)[C@H](CCN)NC(=O)[C@H](CC(C)C)NC(=O)[C@@H](Cc2ccccc2)NC(=O)[C@H](CCN)NC1=O)[C@@H](C)O	Escherichia coli	µg/mL	1
